- System: Pseudomonas aeruginosa
- Assay explanation: Antibacterial activity against Pseudomonas aeruginosa 114228 assessed as reduction in bacterial growth incubated for 18 hrs by broth microdilution assay
- Assay type: functional
Test readout: MIC

Observe how each entry below is paired with its result.
>  <Cpd smiles>
CO[C@H]1/C=C/O[C@@]2(C)Oc3c(C)c(O)c4c(O)c(c(/C=N/N5CCN(Cc6cn(CCCCCCO[C@@H]7[C@@H](O[C@H]8O[C@H](CO)[C@@H](O)[C@H](N)[C@H]8O)[C@H](N)C[C@H](N)[C@H]7O[C@H]7O[C@H](CN)[C@@H](O)C[C@H]7N)nn6)CC5)c(O)c4c3C2=O)NC(=O)/C(C)=C\C=C\[C@H](C)[C@H](O)[C@@H](C)[C@@H](O)[C@@H](C)[C@H](OC(C)=O)[C@@H]1C.Cl.Cl.Cl.Cl.Cl

>  <MIC>
> 128 µg/mL

$$$$
>  <Cpd smiles>
CO[C@H]1/C=C/O[C@@]2(C)Oc3c(C)c(O)c4c(O)c(c(/C=N/N5CCN(Cc6cn(CCCCO[C@@H]7[C@@H](O[C@H]8O[C@H](CO)[C@@H](O)[C@H](N)[C@H]8O)[C@H](N)C[C@H](N)[C@H]7O[C@H]7O[C@H](CN)[C@@H](O)C[C@H]7N)nn6)CC5)c(O)c4c3C2=O)NC(=O)/C(C)=C\C=C\[C@H](C)[C@H](O)[C@@H](C)[C@@H](O)[C@@H](C)[C@H](OC(C)=O)[C@@H]1C.O=C(O)C(F)(F)F.O=C(O)C(F)(F)F.O=C(O)C(F)(F)F.O=C(O)C(F)(F)F.O=C(O)C(F)(F)F

>  <MIC>
> 128 µg/mL

$$$$

Proceed to the following item.
Query: // fetch MIC given entry CO[C@H]1/C=C/O[C@@]2(C)Oc3c(C)c(O)c4c(O)c(c(/C=N/N5CCN(Cc6cn(CCCCCCCCCCCCO[C@@H]7[C@@H](O[C@H]8O[C@H](CO)[C@@H](O)[C@H](N)[C@H]8O)[C@H](N)C[C@H](N)[C@H]7O[C@H]7O[C@H](CN)[C@@H](O)C[C@H]7N)nn6)CC5)c(O)c4c3C2=O)NC(=O)/C(C)=C\C=C\[C@H](C)[C@H](O)[C@@H](C)[C@@H](O)[C@@H](C)[C@H](OC(C)=O)[C@@H]1C.O=C(O)C(F)(F)F.O=C(O)C(F)(F)F.O=C(O)C(F)(F)F.O=C(O)C(F)(F)F.O=C(O)C(F)(F)F
Response: > 128 µg/mL

* * *

- System: Pseudomonas aeruginosa
- Assay explanation: Antibacterial activity against Pseudomonas aeruginosa ATCC 27853 assessed as reduction in bacterial growth incubated for 18 hrs by broth microdilution assay
- Format: functional
Test readout: MIC

Observe how each entry below is paired with its result.
>  <Cpd smiles>
CO[C@H]1/C=C/O[C@@]2(C)Oc3c(C)c(O)c4c(O)c(c(/C=N/N5CCN(Cc6cn(CCCCCCO[C@@H]7[C@@H](O[C@H]8O[C@H](CO)[C@@H](O)[C@H](N)[C@H]8O)[C@H](N)C[C@H](N)[C@H]7O[C@H]7O[C@H](CN)[C@@H](O)C[C@H]7N)nn6)CC5)c(O)c4c3C2=O)NC(=O)/C(C)=C\C=C\[C@H](C)[C@H](O)[C@@H](C)[C@@H](O)[C@@H](C)[C@H](OC(C)=O)[C@@H]1C.Cl.Cl.Cl.Cl.Cl

>  <MIC>
> 32 µg/mL

$$$$
>  <Cpd smiles>
CO[C@H]1/C=C/O[C@@]2(C)Oc3c(C)c(O)c4c(O)c(c(/C=N/N5CCN(Cc6cn(CCCCO[C@@H]7[C@@H](O[C@H]8O[C@H](CO)[C@@H](O)[C@H](N)[C@H]8O)[C@H](N)C[C@H](N)[C@H]7O[C@H]7O[C@H](CN)[C@@H](O)C[C@H]7N)nn6)CC5)c(O)c4c3C2=O)NC(=O)/C(C)=C\C=C\[C@H](C)[C@H](O)[C@@H](C)[C@@H](O)[C@@H](C)[C@H](OC(C)=O)[C@@H]1C.O=C(O)C(F)(F)F.O=C(O)C(F)(F)F.O=C(O)C(F)(F)F.O=C(O)C(F)(F)F.O=C(O)C(F)(F)F

>  <MIC>
> 32 µg/mL

$$$$

Proceed to the following item.
Query: // fetch MIC given entry CO[C@H]1/C=C/O[C@@]2(C)Oc3c(C)c(O)c4c(O)c(c(/C=N/N5CCN(Cc6cn(CCCCCCCCCCCCO[C@@H]7[C@@H](O[C@H]8O[C@H](CO)[C@@H](O)[C@H](N)[C@H]8O)[C@H](N)C[C@H](N)[C@H]7O[C@H]7O[C@H](CN)[C@@H](O)C[C@H]7N)nn6)CC5)c(O)c4c3C2=O)NC(=O)/C(C)=C\C=C\[C@H](C)[C@H](O)[C@@H](C)[C@@H](O)[C@@H](C)[C@H](OC(C)=O)[C@@H]1C.O=C(O)C(F)(F)F.O=C(O)C(F)(F)F.O=C(O)C(F)(F)F.O=C(O)C(F)(F)F.O=C(O)C(F)(F)F
Response: > 32 µg/mL

Where do the numbers come from? From ChEMBL document CHEMBL4715829.
